Just for reference, PubChem BioAssay (NCI) is where these values come from.

Documented TGI across a set of compounds
tested on: SK-MEL-2 melanoma; test: NCI tumour cell line growth inhibition, 48 h
attributeMeasured: TGI (µM)

[[record]]
compound = "CC(=O)Nc1cc(CN2CCCCC2)c(O)c2ncccc12"
qualifier = "="
readoutvalue = 23

[[record]]
compound = "CC(C)(C)OC(=O)CC(NC(=O)OC(C)(C)C)C(=O)Oc1ccc([N+](=O)[O-])cc1 (configuration not stated)"
qualifier = ">"
readoutvalue = 100

[[record]]
compound = "CC(C)[Si](OC1=CCC[C@H]2NC(=O)[C@@H](Cc3ccc([N+](=O)[O-])cc3)[C@@]12C)(C(C)C)C(C)C"
qualifier = "="
readoutvalue = 28

[[record]]
compound = "NC(N)=N/N=C/c1ccc(Br)cc1"
qualifier = "="
readoutvalue = 26.4

[[record]]
compound = "CC1CC(c2ccc([N+](=O)[O-])cc2)=Nc2ccccc2S1=O (configuration not stated)"
qualifier = ">"
readoutvalue = 100

[[record]]
compound = "CC(C)Cn1cnc2c(SCc3ccccn3)nc(N)nc21"
qualifier = ">"
readoutvalue = 100

[[record]]
compound = "Cc1ccc(NCc2nnc3c(-c4ccccc4)nc4ccccc4n23)cc1"
qualifier = "="
readoutvalue = 65.5

[[record]]
compound = "C/C(CC(O)(C(F)(F)F)C(F)(F)F)=N/Nc1ccc([N+](=O)[O-])cc1[N+](=O)[O-]"
qualifier = "="
readoutvalue = 6.11

[[record]]
compound = "Cc1ccc(C(=O)C(C)N)cc1C (configuration not stated)"
qualifier = ">"
readoutvalue = 100

[[record]]
compound = "Cc1cc(C)nc(NS(=O)(=O)c2ccc(NC(=O)c3ccc4nc5ccccc5c(Nc5ccc(S(=O)(=O)Nc6nc(C)cc(C)n6)cc5)c4c3)cc2)n1"
qualifier = ">"
readoutvalue = 100

[[record]]
compound = "CCCCCCCCC(=O)NCCN(CCN)C(=O)CCCCCCCC"
qualifier = "="
readoutvalue = 30.1

[[record]]
compound = "CN(C)c1ccc(/C=N/NC(=O)c2cnc3ccccc3c2)cc1"
qualifier = ">"
readoutvalue = 100

[[record]]
compound = "COc1cc2c(cc1OC)C(=O)N1CCCC1C(=O)S2 (configuration not stated)"
qualifier = ">"
readoutvalue = 100

[[record]]
compound = "CN1C(=O)C(O)C[C@@H]1c1ccc(F)cc1 (some centres not stated)"
qualifier = ">"
readoutvalue = 100

[[record]]
compound = "COn1cc(C(=O)N=C(SC)SC)c2ccccc21"
qualifier = "="
readoutvalue = 52

[[record]]
compound = "COC(=O)/C=C/N1CC1"
qualifier = ">"
readoutvalue = 10

[[record]]
compound = "CCCCn1c2c(n(CCCC)c1=[Se])-c1c(n(CCCC)c(=[Se])n1CCCC)S[Se][Se]S2"
qualifier = "="
readoutvalue = 45.9

[[record]]
compound = "Fc1ccc(C(OCCN2CCC3CCC(C2)N3C/C=C/c2cccnc2)c2ccc(F)cc2)cc1 (configuration not stated)"
qualifier = "="
readoutvalue = 26.5

[[record]]
compound = "CCc1ncc(C(C)(O)c2ccccc2)n1Cc1ccccc1 (configuration not stated)"
qualifier = ">"
readoutvalue = 100

[[record]]
compound = "C[C@H](c1ccc(Cl)cc1[N+](=O)[O-])N1C(=O)c2cc(I)ccc2NC(=O)[C@H]1c1ccc(Cl)cc1"
qualifier = ">"
readoutvalue = 100

[[record]]
compound = "CN(C)c1ccc(/C=c2\\sc3nnc(Cc4ccccc4)n3c2=O)cc1"
qualifier = ">"
readoutvalue = 100

[[record]]
compound = "Nc1cc(N)c2nc(-c3ccccc3)c(Oc3ccc(Cl)c(Cl)c3)nc2c1"
qualifier = "="
readoutvalue = 23.3

